target: protein kinase B (PKB), fusion protein PKB-PIF (Homo sapiens, UniProt P31751); construct: made in house; assay: Measurement of PKB kinase inhibitory activity (IC50); format: biochemical; details: PKB-PIF activated with PDK1, 30 μM ATP, AKTide-2T substrate, 20 minutes; read-out: IC50 (concentration required to inhibit 50% of the PKB activity)
Sequence (P31751 with tags, fused parts or gaps limits assumed): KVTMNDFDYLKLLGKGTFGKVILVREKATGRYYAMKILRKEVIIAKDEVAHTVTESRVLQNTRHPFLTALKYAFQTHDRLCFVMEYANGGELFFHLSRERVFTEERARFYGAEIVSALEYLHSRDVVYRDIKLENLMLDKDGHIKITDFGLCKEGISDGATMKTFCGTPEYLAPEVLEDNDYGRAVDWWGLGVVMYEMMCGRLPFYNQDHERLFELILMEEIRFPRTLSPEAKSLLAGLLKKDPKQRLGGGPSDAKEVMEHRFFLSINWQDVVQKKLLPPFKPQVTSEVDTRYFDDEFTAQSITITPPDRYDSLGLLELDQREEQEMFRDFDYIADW
Measurement type: IC50

INPUT: For the molecule O=C(Nc1ccc2c(=O)[nH]cnc2c1)C1(c2ccc(Cl)cc2)CCNCC1 , what IC50 is on record?
OUTPUT: < 10 µM

INPUT: For the molecule O=C(NCc1ccc(F)cc1)Nc1ccc2c(=O)[nH]cnc2c1 , what IC50 is on record?
OUTPUT: < 10 µM

INPUT: For the molecule O=c1[nH]cnc2cc(N3CCNC(c4ccccc4)C3)ccc12 (centres unmarked) , what IC50 is on record?
OUTPUT: < 50 µM

INPUT: For the molecule O=C(Nc1ccc2c(=O)[nH]cnc2c1)C1(c2ccccc2)CCNCC1 , what IC50 is on record?
OUTPUT: < 10 µM

INPUT: For the molecule NC(c1ccc(Cl)cc1)C1CCN(c2ccc3c(=O)[nH]cnc3c2)CC1 (centres unmarked) , what IC50 is on record?
OUTPUT: < 10 µM
